Provide the reported LD50 of each item.
Assay: Acute toxicity, intraperitoneal (Miller and Tainter)
Conditions: mouse, in vivo, ip; mice, i.p.; read-out: Acute toxicity LD 50
Record the value in mg/kg, omitting the unit from your answer.

Value lookup for LD50; key = c1ccc(-c2ccc(C34CNCC(CO3)O4)cc2)cc1 (stereo not drawn) [compound 40]
310

Dear colleague, I am looking for the recorded LD50 of the following compound: c1ccc2c(C34CNCC(CO3)O4)cccc2c1 (stereo not drawn) [compound 58]
160

Find the recorded LD50 belonging to Clc1cccc(C23CNCC(CO2)O3)c1 (stereo not drawn) [Code number 9] and report it.
240

Entry Fc1ccc(C23CCCNCC(CO2)O3)cc1 (stereo not drawn) [compound 32] : reported LD50 = ?
140

Report LD50 for COc1ccc2cc(C34CNCC(CO3)O4)ccc2c1 (stereo not drawn) [compound 56] please.
240

If you can, please state the reported LD50 value of O=C(c1ccccc1)c1cccc(C23CNCC(CO2)O3)c1 (stereo not drawn) [compound 59] .
155

I have this compound here, c1ccc2cc(C34CNCC(CO3)O4)ccc2c1 (stereo not drawn) [compound 39] , and I need its recorded LD50.
310

Return reported LD50; argument: N#Cc1ccc(C23CNCC(CO2)O3)cc1 (stereo not drawn) [compound 19]
280

Name the reported LD50 value associated with the compound CC(=O)Nc1ccc(C23CNCC(CO2)O3)cc1 (stereo not drawn) [compound 44]
380

Would you mind telling me what LD50 value was observed for O=[N+]([O-])c1ccc(C23CNCC(CO2)O3)cc1 (stereo not drawn) [compound 21] ?
290

Endpoint output: LD50 of Clc1ccc(C23CNCC(CO2)O3)cc1Cl (stereo not drawn) [compound 23] . Value?
300

Param item = COc1ccccc1C12CNCC(CO1)O2 (stereo not drawn) [compound 14] ; retrieve measured LD50.
300

Any idea what LD50 was measured for Fc1ccc(C23CNCC(CO2)O3)cc1 (stereo not drawn) [Code number 7] ?
300

GET /values?readout=LD50&item= CC(C)(C)C12CNCC(CO1)O2 (stereo not drawn) [Code number 1]
400

Please report the recorded LD50 for C1C2CC3CC1CC(C14CNCC(CO1)O4)(C2)C3 (stereo not drawn) [compound 36] .
185

Endpoint output: LD50 of CCN1CC2COC(c3ccc(F)cc3)(C1)O2 (stereo not drawn) [compound 25] . Value?
280
